# key: entry, value: growth
# Test system: OVCAR-4 ovarian
# Measurement protocol: NCI-60 one-dose screen, 48 h (100 = growth as untreated, 0 = no growth, -100 = all killed)
# Experimental conditions: 10 µM unless noted
The panel holds about 83,000 compounds, 20% with a hit somewhere; the sample as a whole holds those more often. Active and inactive are the calls of the source. Rule for the calls: active = growth percent below 10; inactive = the rest.

Smiles data	Tested system	growth
COc1ccc(OC)c(Nc2nnc(-c3ccc(Cl)cc3)o2)c1	OVCAR-4 ovarian	10.5% (inactive)
c1ccc(CCc2ccccc2-c2cc(-c3ccccc3)on2)cc1	OVCAR-4 ovarian	77.2% (inactive)

Record `CCOC(=O)c1c(-c2ccc(Cl)cc2)c(C#N)c2c(C#N)c(N)nn2c1N` . Reported growth: 77.3% (inactive)

Record `COc1cc(C(=O)c2c(-c3ccccc3)oc3c(OC)cccc23)cc(OC)c1O` . Reported growth: 42.1% (inactive)

Record `N=c1sc(Cc2cc(Cl)ccc2Cl)cn1CC(=O)c1ccccc1` . Reported growth: 56.5% (inactive)

Record `CCCCCCCCn1ccc2cc(NC(=O)Cn3cc(CN4CCOCC4)nn3)ccc21` . Reported growth: 99.5% (inactive)

Record `CCOC(=O)c1c2c(n3ccccc13)C(=O)c1ncccc1C2=O` . Reported growth: 16.6% (inactive)

Record `C=C1C(=O)O[C@H]2[C@H]1CC/C(COC(=O)NCc1ccc(Cn3c(=O)sn(-c4ccc(OC)cc4)c3=O)cc1)=C\CC[C@@]1(C)O[C@@H]21` . Reported growth: 35.7% (inactive)

Record `CCn1cc(CNc2ccc(C(=O)Nc3cc4cc(OC)c(OC)cc4c(C)n3)cc2)c(C)n1` . Reported growth: 25% (inactive)

Record `O=C(/C=C\c1ccco1)/C=C/c1ccco1` . Reported growth: 105% (inactive)

====

# Test system: OVCAR-3 ovarian
# Measurement protocol: NCI-60 one-dose screen, 48 h
# Experimental conditions: 10 µM unless noted
About 83,000 compounds went through this panel and 20% of them were active in at least one assay; those are over-represented in the sample as a whole. The source made the active and inactive calls. How the source made its calls: active means growth percent below 10; inactive means the rest.
Please state which outcome applies, choosing from active, inactive

Examples from the recorded data:
Compound	Label value
C[C@H]1[C@H](C)CC[C@]2(C(=O)O)CC[C@]3(C)C(=CC[C@@H]4[C@@]5(C)C[C@@H](Cc6cn([C@@H]7O[C@H](CO)[C@@H](O)[C@H](O)[C@H]7O)nn6)[C@H](O)C(C)(C)[C@@H]5CC[C@]43C)[C@H]12	inactive
COc1cccc(/C=C2\COc3ccc(O)cc3C2=O)c1	inactive
COc1cc2c(cc1O)[C@@]1(C)[C@H](c3ccccc3Br)OC(=O)N1CC2	inactive
COc1ccc(NC(=O)c2cccc(C3CCc4c(cc(OC)c(OC)c4OC)O3)c2)cc1 (configuration not stated)	active
CCn1cc(C(=O)N/N=C/c2ccc(Br)cc2)c(=O)c2cc(F)c(N3CCNC(C)C3)c(F)c21 (configuration not stated)	inactive
COc1cc2c3c(n(CCCCNCCCn4c5c(c6cc(OC)c(OC)cc6c4=O)C(=O)c4cc6c(cc4-5)OCO6)c(=O)c2cc1OC)-c1cc2c(cc1C3=O)OCO2	inactive
CCCCCCCCNc1cc2c3c(c1)CCCN3CCC2	active
COc1ccc(C2=Nc3c/c(=C\c4c(O)[nH]c5cc(Cl)ccc45)ccc3=N2)cc1	inactive
O=C1/C(=C/c2ccccc2)CN(C(=O)c2cccnc2)C/C1=C\c1ccccc1	active
COc1ccc(/C=C/C(=O)c2cc3c(N)c(C(=O)Nc4ccccc4C)sc3nc2C)cc1	active

Data request: For this compound, state the assay outcome: C=C(C)[C@@H]1CC[C@]2(CO)CC[C@]3(C)[C@H](CC[C@@H]4[C@@]5(C)CCC(NCCc6ccc(O)cc6)C(C)(C)[C@@H]5CC[C@]43C)[C@@H]12 (some centres not stated)
Data returned: active

Data request: For this compound, state the assay outcome: `O=C(Cn1nnc2ccccc21)Nc1ccc(-c2nc3ccccc3s2)cc1`
Data returned: inactive

Data request: For this compound, state the assay outcome: `O=C(N/N=C/c1ccc([N+](=O)[O-])cc1)c1ccc2nc(-c3ccc(Cl)cc3)[nH]c2c1`
Data returned: inactive

Data request: For this compound, state the assay outcome: `Cc1cc(N2CCCCC2)nc(N2CCN(CC(=O)Nc3ccc4c(ccn4Cc4ccccc4)c3)CC2)n1`
Data returned: inactive

Data request: For this compound, state the assay outcome: `COc1ccc(NC(=O)c2sc3nc4c(cc3c2N)CCCC4)cc1`
Data returned: inactive

Data request: For this compound, state the assay outcome: `C=CCCC(=O)N1C=CC(=O)[C@H](O)[C@@H]1/C=C/c1ccccc1`
Data returned: inactive

Data request: For this compound, state the assay outcome: `Oc1c(I)cc(-c2nc3ccccc3s2)cc1CN(Cc1ccccn1)Cc1ccccn1`
Data returned: inactive

meta.source: PubChem BioAssay (NCI)
